Would you please tag the item label 1 when its flash point is 50 °C or above, and label 0 when it is below?

compound=C=C(C)C(=O)O group="label 1"
compound=c1ccc2sc(SSc3nc4ccccc4s3)nc2c1 group="label 1"
compound=C=CC(=C)CCC=C(C)C group="label 0"
compound=O=CCCl group="label 1"
compound=c1ccc2ccccc2c1 group="label 1"

Asked: Record CC(O)CBr (centres undefined) ; criterion: flash point no lower than 50 °C. Met?
Given back: label 1

Asked: Does flash point meet or surpass 50 °C for `CC(=O)C(C)=O` ?
Given back: label 0

Asked: State whether the measured flash point reaches 50 °C, counting equality as reaching it, for CCCC(C)CO (centres undefined)
Given back: label 1

Asked: Test whether the compound `CC(C)(C)c1ccccc1` records flash point of 50 °C or higher.
Given back: label 1

Asked: Confirm if flash point reported for the compound CC(C)CC(C)N (centres undefined) is 50 °C or above.
Given back: label 0

Asked: Check the entry `O=C(O)CCC(=O)O` : does flash point equal or exceed 50 °C?
Given back: label 1

====

Measured flash point accompanies every entry in the list below.
Supply the numeric figure in °C, leaving out any unit text.

Known flash point results, listed for orientation:
test_smiles=C=CC[SiH](Cl)Cl observed_result=-4.00
test_smiles=CC(=O)OCC[Si](C)(Cl)Cl observed_result=65.00
test_smiles=C=CCO[Si](C)(C)C(C)(C)C observed_result=32.00
test_smiles=C=CC[Si](Cl)(Cl)c1ccccc1 observed_result=76.00

# context switch: different molecule, same flash point
Asked: Fill in: flash point of `CO[Si](CCCN)(OC)OC` is ___
Given back: 83.00

====

Binning of flash point into classes: low end: < 50 °C; middle: ≥ 50 °C and < 100 °C; high end: ≥ 100 °C

compound="O=CC1CCC=CO1 (stereo not drawn) [3,4-dihydro-2H-pyran-2-carbaldehyde]" group="low end"
compound=Cc1ccncc1 group=middle
compound=O=C(O)c1ccc2c(c1)C(=O)OC2=O group="high end"
compound=CCCCOC(=O)COC(=O)c1ccccc1C(=O)OCCCC group="high end"
compound="CCC(C)Nc1c([N+](=O)[O-])cc(C(C)(C)C)cc1[N+](=O)[O-] (stereo not drawn)" group="low end"
compound=CCCCl group="low end"

Asked: Could you place `CCC(C=O)CC` in its proper category? Many thanks.
Given back: low end

Asked: Would you mind sorting C=C(C)OC(C)=O [prop-1-en-2-yl acetate] into the appropriate category?
Given back: low end

Asked: Exam item: assign C=C1C(CCl)(CCl)C2(Cl)C(Cl)C(Cl)C1(Cl)C2(Cl)Cl (stereo not drawn) to the correct category.
Given back: low end

Asked: // return the class label for CCCOC(=O)c1cc(O)c(O)c(O)c1 [propyl 3,4,5-trihydroxybenzoate]
Given back: high end

Asked: Band of `Clc1cc(Cl)cc(-c2cc(Cl)cc(Cl)c2)c1` ?
Given back: high end

Asked: Band of `Clc1ccc(-c2cccc(Cl)c2Cl)c(Cl)c1` ?
Given back: high end

====

Returns the class for an entry based on its flash point. Class ranges: one (below 20 °C), two (20 °C to below 40 °C), three (40 °C or more)

Field: example entries. Status: answers known.
compound="CCN(CC)CC [TRIETHYLAMINE]" group=one
compound=CCc1cccc(C)c1 group=two
compound="CCCCCCCCCCCO [1-Undecanol]" group=three
compound=Cc1ccccn1 group=two
compound=CCC(C)(O)CC group=two

Asked: # bin label for CCC(O)CC [3-PENTANOL]
Given back: two

Asked: Hello team, could you let me know which band the following compound falls into: CCCCC(CC)CO (centres undefined)
Given back: three

Asked: Using the reported flash point, which band applies to `C=CC(C)(C)C` ?
Given back: one

Asked: Band for CCCCCC#N [Hexanenitrile] ?
Given back: three

Asked: State the band of `CCCNCCC`
Given back: one
